- System tested: Human soluble guanylate cyclase enzyme (hsGC) (Homo sapiens (Human), UniProt Q02108+Q02153)
- Sequence (Q02153 whole entry): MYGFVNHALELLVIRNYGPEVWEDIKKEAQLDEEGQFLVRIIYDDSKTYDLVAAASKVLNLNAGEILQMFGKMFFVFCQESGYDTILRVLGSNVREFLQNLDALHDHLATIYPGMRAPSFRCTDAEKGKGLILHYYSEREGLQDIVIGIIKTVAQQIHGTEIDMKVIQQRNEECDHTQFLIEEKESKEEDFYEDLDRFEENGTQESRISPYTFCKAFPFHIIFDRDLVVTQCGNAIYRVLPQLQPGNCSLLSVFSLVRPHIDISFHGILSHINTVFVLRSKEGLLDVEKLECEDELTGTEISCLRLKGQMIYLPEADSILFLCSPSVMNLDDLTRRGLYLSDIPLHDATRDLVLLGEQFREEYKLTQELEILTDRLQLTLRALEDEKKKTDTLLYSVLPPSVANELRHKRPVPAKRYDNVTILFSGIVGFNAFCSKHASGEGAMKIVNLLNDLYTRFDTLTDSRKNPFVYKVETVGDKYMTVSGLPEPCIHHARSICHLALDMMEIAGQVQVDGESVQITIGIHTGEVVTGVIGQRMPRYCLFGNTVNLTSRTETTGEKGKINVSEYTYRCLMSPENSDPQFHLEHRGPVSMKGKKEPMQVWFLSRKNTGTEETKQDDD
- Sequence (Q02108 whole entry): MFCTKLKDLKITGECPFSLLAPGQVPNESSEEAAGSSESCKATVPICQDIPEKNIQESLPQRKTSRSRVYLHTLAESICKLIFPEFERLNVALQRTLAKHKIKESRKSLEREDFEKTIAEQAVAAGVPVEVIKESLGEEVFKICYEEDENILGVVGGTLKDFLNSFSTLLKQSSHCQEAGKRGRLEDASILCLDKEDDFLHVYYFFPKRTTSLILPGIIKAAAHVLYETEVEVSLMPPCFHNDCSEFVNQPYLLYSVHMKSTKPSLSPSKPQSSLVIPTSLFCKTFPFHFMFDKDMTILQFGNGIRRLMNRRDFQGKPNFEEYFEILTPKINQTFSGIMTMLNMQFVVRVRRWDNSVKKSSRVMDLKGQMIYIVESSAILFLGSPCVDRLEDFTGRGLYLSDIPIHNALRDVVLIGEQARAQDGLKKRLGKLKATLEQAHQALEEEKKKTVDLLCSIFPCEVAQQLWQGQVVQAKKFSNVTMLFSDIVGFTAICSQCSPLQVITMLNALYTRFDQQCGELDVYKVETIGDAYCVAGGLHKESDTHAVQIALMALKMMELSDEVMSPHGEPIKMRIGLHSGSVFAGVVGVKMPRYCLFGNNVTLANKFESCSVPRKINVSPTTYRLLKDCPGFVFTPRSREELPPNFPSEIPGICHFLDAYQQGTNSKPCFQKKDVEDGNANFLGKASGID
- Assay details: Purified human sGC enzyme activity assay
- Assay type: biochemical
- Condition details: 30 μM compound
Readout: sGC Enzyme (specific activity at 30 μM)

Cc1ccc(-c2c(Br)c(-c3ncccn3)nn2Cc2ccccc2F)cc1 [Compound I-58]
B (B = 50 to <100)
N#Cc1ccc(-c2cc(-c3ccccn3)nn2Cc2ccccc2F)cc1 [Compound I-17]
B (B = 50 to <100)
Fc1ccccc1Cn1nc(-c2ccccn2)cc1-c1ccccc1F [Compound I-7]
D (D = 200 to <500)
Cc1ccc(-c2cc(-c3ccccn3)nn2Cc2ccccc2F)cc1 [Compound I-23]
D (D = 200 to <500)
COc1cccc(-c2cc(-c3ccccn3)nn2Cc2ccccc2F)n1 [Compound I-25]
D (D = 200 to <500)

Q: For the compound Fc1ccccc1Cn1nc(-c2ncccn2)cc1-c1nccs1 [Compound I-33] , report sGC Enzyme (specific activity at 30 μM).
Result: D (D = 200 to <500)

Q: For the compound Fc1ccccc1Cn1nc(-c2ccccn2)cc1-c1ccccc1 [Compound I-5] , report sGC Enzyme (specific activity at 30 μM).
Result: D (D = 200 to <500)

Q: For the compound Fc1ccccc1Cn1nc(-c2ccccn2)c(Cl)c1-c1ccccn1 [Compound I-63] , report sGC Enzyme (specific activity at 30 μM).
Result: B (B = 50 to <100)
